experiment: protein stability index of a GFP-peptide fusion (yeast GPS) (PSI 1-4); higher = more stable; sorted into four equal gates, so the index is relative within each strain; conditions: ubr1∆

ORDERED RESIDUES: IDEAHRIKNEQSALSQI [ISW2]
protein stability index: 3

ORDERED RESIDUES: KALPMLEQVEFEKNTIL [MED4]
protein stability index: 3.08

ORDERED RESIDUES: TQLQRGGTSDMNYLLDN [CSI1]
protein stability index: 3.02

ORDERED RESIDUES: EPFNAGIKYHATPPLKR [SMC1]
protein stability index: 2.97

ORDERED RESIDUES: SAGNDKMVKAWNLNQFQ [ASC1]
protein stability index: 2.36

ORDERED RESIDUES: NNNNSTRPQMPSRTRET [GRR1]
protein stability index: 3.03

ORDERED RESIDUES: HVKNFGFANSLTFILGQ [YML031W/NDC1]
protein stability index: 2.27

ORDERED RESIDUES: KMVAKGLNDLVEQYKFR [BRR2]
protein stability index: 3.14

ORDERED RESIDUES: GDFLDFQVHERLAPLIK [ARP7]
protein stability index: 3.47

ORDERED RESIDUES: ERSYPSEFANQNQGGAQ [ROX3]
protein stability index: 3.17

ORDERED RESIDUES: NYILNFKQSNSETFLQF [CDC53]
protein stability index: 2.12

ORDERED RESIDUES: WTVLFRKHHKKGITEEV [RPL24A]
protein stability index: 2.64

ORDERED RESIDUES: GMLAMASLHSKELTRIP [MED4]
protein stability index: 1.88

ORDERED RESIDUES: LSTGRKFERARGRRRSK [RPL18A]
protein stability index: 3.05

ORDERED RESIDUES: EEEVTDQLEDLREHFKN [QCR6]
protein stability index: 3.29

ORDERED RESIDUES: GRKYTTLGKLSTSVGWK [RPL16B]
protein stability index: 2.64

ORDERED RESIDUES: MSAKAQNPMRDLKIEKL [RPL11A]
protein stability index: 3.61

ORDERED RESIDUES: TMETKTLPEKKQFDSIF [SIR4]
protein stability index: 2.65

ORDERED RESIDUES: DHYESNQLVAKLLLLRI [SRB8]
protein stability index: 2.34

ORDERED RESIDUES: EKIMILLVPLALLTKRL [CSN12]
protein stability index: 1.3

ORDERED RESIDUES: EFFSTNWLSIFNDFSNI [REC8]
protein stability index: 2.83

ORDERED RESIDUES: WVFSYLRWFELKPKLYY [SIR3]
protein stability index: 2.49

ORDERED RESIDUES: HVLYKESKGNAFKHKRA [RPL19A]
protein stability index: 2.46

ORDERED RESIDUES: DQTNHIESDSILNLLNI [ECM29]
protein stability index: 3.03

ORDERED RESIDUES: KLKRNSDRREHDEKLSD [LIN1]
protein stability index: 2.96

ORDERED RESIDUES: YPVHEAHKGQIVLIKGI [SNU114]
protein stability index: 2.87

ORDERED RESIDUES: LPQFRSSIQESLLSLVG [ECM29]
protein stability index: 1.65

ORDERED RESIDUES: SVQLPDMAKLKKMMNTS [SWI3]
protein stability index: 1.94

ORDERED RESIDUES: AAHYNRERIKRGAHVEK [PRP8]
protein stability index: 2.77

ORDERED RESIDUES: VSQMVAVVGQQIISGNR [RPO31]
protein stability index: 2.68

ORDERED RESIDUES: ADKNCAKLHRISPKIWC [PUP1]
protein stability index: 2.14

ORDERED RESIDUES: EAVELVIGLDSEHDKKR [YML103C/NUP188]
protein stability index: 3.37

ORDERED RESIDUES: SGCENITDKTIESIVNL [GRR1]
protein stability index: 2.98

ORDERED RESIDUES: KKVMPAIVVRQAKSWRR [RPL23A]
protein stability index: 2.99

ORDERED RESIDUES: EGRLYQVEYALESISHA [PRE9]
protein stability index: 1.85

ORDERED RESIDUES: ILQILDQDELVQPPLDK [SWP82]
protein stability index: 2.48

ORDERED RESIDUES: HATVVPPEEFSNTIDEL [SRB7]
protein stability index: 3.02

ORDERED RESIDUES: HNSVKRYQIMLPEQLKS [SNM1]
protein stability index: 1.74

ORDERED RESIDUES: EHFSHFGHIMEDFQVLR [YDL088C/ASM4]
protein stability index: 2.44

ORDERED RESIDUES: EEEEDTTTTANINEVKK [NUT1]
protein stability index: 3.33

ORDERED RESIDUES: KIYNFGELLHHPIMETI [RPN9]
protein stability index: 2.91

Sourced from the supplement of paper PMC9732359
